# TGT: T1, recombinant cynomolgus CD33 protein (NovoProtein) (cynomolgus)
# T1 construct: Bought protein; also called cyno CD33
# TEST SUMMARY: ELISA, plate coated with recombinant CD33
pEC50: −log10 of the molar value.
Classify as follows. Reported pEC50 greater than or equal to 8: yes. Reported pEC50 below: no.

Query :: Could you tell me if the measured pEC50 of anti-CD33 antibody 6C7H37 (antibody, V domains shown, VH/VL only) VH: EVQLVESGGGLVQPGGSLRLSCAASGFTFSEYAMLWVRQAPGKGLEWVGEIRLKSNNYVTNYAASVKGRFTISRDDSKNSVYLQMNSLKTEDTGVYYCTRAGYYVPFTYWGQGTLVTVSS VL: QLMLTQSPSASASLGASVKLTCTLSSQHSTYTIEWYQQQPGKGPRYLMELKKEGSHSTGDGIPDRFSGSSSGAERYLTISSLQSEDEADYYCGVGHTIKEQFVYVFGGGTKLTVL reaches 8 or more?
Result :: yes

Query :: Could you tell me if the measured pEC50 of anti-CD33 antibody 6C7H5 (antibody, V domains shown, Humanized 6C7; VH/VL only; also called parental humanized antibody) VH: EVQLVESGGGLVQPGGSLRLSCAGSGFTFSNYCMNWVRQAPGKGLEWVAEIRLKSNNYVTNYAASVKGRFTISRDDSKNSVYLQMNSLKTEDTGVYYCTRDGYYVPFAYWGQGTLVTVSS VL: QLVLTQSPSASASLGASVKLTCTLSSQHSTYTIEWYQQQPEKGPRYLMELKKDGSHSTGDGIPDRFSGSSSGAERYLTISSLQSEDEADYYCGVGDTIKEQFVYVFGGGTKLTVL reaches 8 or more?
Result :: yes

Query :: Could you tell me if the measured pEC50 of anti-CD33 antibody 6C7H47 (antibody, V domains shown, VH/VL only) VH: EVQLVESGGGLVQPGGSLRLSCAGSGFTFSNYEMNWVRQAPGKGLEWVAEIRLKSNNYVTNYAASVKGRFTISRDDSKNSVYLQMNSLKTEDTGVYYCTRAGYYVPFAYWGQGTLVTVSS VL: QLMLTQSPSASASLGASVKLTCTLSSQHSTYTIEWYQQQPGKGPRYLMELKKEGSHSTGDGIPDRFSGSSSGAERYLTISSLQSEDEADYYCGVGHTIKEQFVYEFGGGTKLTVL reaches 8 or more?
Result :: yes

Query :: Could you tell me if the measured pEC50 of anti-CD33 antibody 6C7H38 (antibody, V domains shown, VH/VL only) VH: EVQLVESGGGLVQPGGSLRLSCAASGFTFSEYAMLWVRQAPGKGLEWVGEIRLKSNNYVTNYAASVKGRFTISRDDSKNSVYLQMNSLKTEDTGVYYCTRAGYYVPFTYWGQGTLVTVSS VL: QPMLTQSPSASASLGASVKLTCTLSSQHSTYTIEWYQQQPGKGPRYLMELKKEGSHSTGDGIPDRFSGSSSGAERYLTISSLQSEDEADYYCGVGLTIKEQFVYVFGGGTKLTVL reaches 8 or more?
Result :: yes

Query :: Could you tell me if the measured pEC50 of anti-CD33 antibody 6C7H53 (antibody, V domains shown, VH/VL only) VH: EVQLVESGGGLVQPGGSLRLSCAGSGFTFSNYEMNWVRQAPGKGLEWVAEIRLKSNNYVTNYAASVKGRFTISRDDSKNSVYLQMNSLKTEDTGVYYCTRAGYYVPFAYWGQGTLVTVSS VL: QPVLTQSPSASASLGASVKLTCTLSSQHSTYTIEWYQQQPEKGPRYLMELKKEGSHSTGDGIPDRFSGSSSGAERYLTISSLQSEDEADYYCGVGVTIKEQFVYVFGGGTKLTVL reaches 8 or more?
Result :: no
